meta.source: patent US20220125891A1

Subject Of Test: T1, full-length human Regnase-1 with a FLAG tag on the N-terminal side and a biotin ligase BirA recognition … (human, UniProt Q5D1E8 1-599, biotinylated where required ; Biotinylated at the BirA recognition sequence where required. That sequence is not in the letters.)
T1 sequence: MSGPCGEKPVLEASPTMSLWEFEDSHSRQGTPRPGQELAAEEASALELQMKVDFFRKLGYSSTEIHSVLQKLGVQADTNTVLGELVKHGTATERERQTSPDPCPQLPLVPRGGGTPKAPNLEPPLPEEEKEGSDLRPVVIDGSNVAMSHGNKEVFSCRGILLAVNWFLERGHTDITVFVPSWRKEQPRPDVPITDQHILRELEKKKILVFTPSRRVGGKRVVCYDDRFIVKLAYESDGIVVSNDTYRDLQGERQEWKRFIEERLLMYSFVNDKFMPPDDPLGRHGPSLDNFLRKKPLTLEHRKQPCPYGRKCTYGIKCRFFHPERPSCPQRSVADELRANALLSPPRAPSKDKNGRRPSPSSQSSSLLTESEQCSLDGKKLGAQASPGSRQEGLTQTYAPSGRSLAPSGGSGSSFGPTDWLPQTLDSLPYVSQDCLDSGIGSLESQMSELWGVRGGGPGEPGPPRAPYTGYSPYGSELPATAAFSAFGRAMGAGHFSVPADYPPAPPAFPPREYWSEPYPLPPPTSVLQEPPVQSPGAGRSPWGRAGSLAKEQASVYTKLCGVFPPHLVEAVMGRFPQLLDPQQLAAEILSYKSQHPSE
Assay Overview: cell-based or functional assay
Positions of bridges follow the written chain, without caps; N, C: chain ends. Non-standard residues stand in square brackets, D forms with d. No end group written: not given here. NMeA = CN[C@@H](C)C(=O)O; dNMeA = CN[C@H](C)C(=O)O
Note to self: use yes only for IC50, phosphorylation by IKKβ readings below 20 µM; a reading exactly at 20 µM still gets no.

{"Binder": "[NMeA]HSNAWYNIWD (lactam N-11) [PP5]", "Cat": "no"}
{"Binder": "[NMeA]TSWYKVNWGQD (lactam N-12) [PP1]", "Cat": "no"}
{"Binder": "[dNMeA]KHASAWYRIWD (lactam N-12) [PP3]", "Cat": "yes"}
{"Binder": "[NMeA]GYANSWYNIWD (lactam N-12) [PP2]", "Cat": "yes"}
{"Binder": "[dNMeA]PNSSWFKIWD (lactam N-11) [PP6]", "Cat": "yes"}
